Molecular target: T1, human PD-L1 on CHO-K1 cells overexpressing human PD-L1 (human, UniProt Q9NZQ7 19-290)
T1 construct: whole, on cells; also called CHO-K1/hPD-L1; CHO-K1-hPD-L1
T1 sequence (Q9NZQ7 19-290): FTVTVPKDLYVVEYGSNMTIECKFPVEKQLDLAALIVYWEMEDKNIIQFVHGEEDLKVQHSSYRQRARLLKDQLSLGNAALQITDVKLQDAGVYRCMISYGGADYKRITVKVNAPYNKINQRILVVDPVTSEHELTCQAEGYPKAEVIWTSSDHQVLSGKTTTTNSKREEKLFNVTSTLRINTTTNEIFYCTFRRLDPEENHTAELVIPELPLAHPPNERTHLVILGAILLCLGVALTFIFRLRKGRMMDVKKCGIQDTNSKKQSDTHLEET
Assay: flow cytometry on CHO-K1 cells overexpressing human PD-L1 (CHO-K1/hPD-L1) [continued) D]
Experimental: In the example, in order to study the in vitro binding activity of the PD-L1 antigen-binding protein to human/cynomolgus monkey PD-L1, cell-level binding experiments were performed using CHO-K1 cell strains overexpressing human PD-L1 (CHO-K1/hPD-L1, GenScript, M00543) or CHO-K1 cell strains overexpressing cynomolgus monkey PD-L1 (CHO-K1/cynoPD-L1, GenScript, M00573). […] Fluorescence signal values were read using a BD FACS CANTOII. […]
ATTRIBUTE MEASURED: EC50 (nM)

| BINDER | REPORTED VALUE |
| --- | --- |
| PR005875 (antibody, human IgG1, V domains shown, The HC entry is used) VH: QVQLVESGGGVVQPGMSLRLSCAASGFTFSSYGMYWVRQAPGKGQEWVASIRYTGTEKHYADSVKGRFTISRDNSKNTLYLEMNSLRVEDTAVYYCAKNRALFGVIPDASDIRGQGTMVTVSS | 0.974 |
| PR005872 (antibody, human IgG1, V domains shown, The HC entry is used) VH: QVQLVESGGGVVQPGMSLRLSCAASGFTFSSYGMYWVRQAPGKGQEWVASIRYTGTEKHYADSVKGRFTISRDNSKNTLYLEMNSLRVEDTAVYYCAKNRAIFGVIPDDSDIRGQGTMVTVSS | 0.787 |
| PR002082 (antibody, human IgG1, V domains shown, HCAb; also called PTM variant of PR000960 (N28T, N31S)) VH: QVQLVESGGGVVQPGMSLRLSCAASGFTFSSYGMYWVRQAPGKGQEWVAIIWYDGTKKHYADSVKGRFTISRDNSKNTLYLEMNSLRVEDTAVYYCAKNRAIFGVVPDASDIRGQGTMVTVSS | 1.23 |
| PR005878 (antibody, human IgG1, V domains shown, The HC entry is used) VH: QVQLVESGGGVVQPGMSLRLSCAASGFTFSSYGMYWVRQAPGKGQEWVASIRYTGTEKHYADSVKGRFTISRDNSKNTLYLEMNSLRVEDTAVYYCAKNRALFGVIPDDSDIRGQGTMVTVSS | 0.944 |
